B1: FBF1 (parent)
chain: YQRPQDSEDMWGDEDFTFGAYQPT

- Variants of: B1
- assay text: protein stability index of a GFP-peptide fusion (GPS, HEK-293T) (PSI 1-6); higher = more stable;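 also: lentivirally expressed fusions sorted by FACS into six bins by GFP to DsRed ratio, PSI derived from sequencing read proportions per bin multiplied by bin number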
- test parameters: c terminus: a fixed tail appended
Task for the reader: assign each of the following variants its reported protein stability index.
Output spec: single numeric token, no unit.

query: Fill in: protein stability index of `P4K` is ___
result: 2.29

query: Recorded protein stability index for `M10N` , please?
result: 4.06

query: If you can, please state the reported protein stability index value of `D6V` .
result: 2.12

query: I would be grateful if you could share the reported protein stability index for `E8Y` .
result: 2.31

query: # lookup: protein stability index of `F16M`
result: 3.17

query: # lookup: protein stability index of `E8W`
result: 1.58

query: Returns the measured protein stability index for the input variant. Input: `D9G`
result: 2.47

query: Which value of protein stability index has been reported for `E8T` in the records?
result: 2.29

query: Consider the variant `D13H` and give its measured protein stability index.
result: 1.76

query: // query protein stability index value for entry `P23V`
result: 2.4

query: For the variant shown here, `R3N` , give the reported protein stability index.
result: 3.71

Numbers sourced from the supplement of paper PMC10567573.
